- System: MMP-1 (Homo sapiens)
- Construct: purchased Abchem (so in the source)
- Sequence (P03956 100-269 limits assumed): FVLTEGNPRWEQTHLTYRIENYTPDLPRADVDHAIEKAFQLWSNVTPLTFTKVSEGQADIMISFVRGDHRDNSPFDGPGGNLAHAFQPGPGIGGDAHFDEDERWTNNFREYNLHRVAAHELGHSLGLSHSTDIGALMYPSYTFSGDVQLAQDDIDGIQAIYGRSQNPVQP
- Assay details: MMP1 Inhibitor Screening Assay Kit (ab139443), colorimetric thiopeptide substrate, OD412
- Assay type: biochemical
- Condition summary: inhibition; T-23~34 at 5 uM; read-out: MMP-1 (%) (inhibitory efficacy, high concentration)
Readout: inhibition at 5 µM (%)
Your answer is read as %, so omit the unit and give the number.

The following molecules have reported results that may help.
O=C(NO)C1CCCN1S(=O)(=O)c1ccc(C23CC4CC(CC(C4)C2)C3)cc1 (stereo not drawn) :: 0
O=C(NO)C1CCCCN1S(=O)(=O)c1ccc(C23CC4CC(CC(C4)C2)C3)cc1 (stereo not drawn) :: 0
CC(=O)Nc1ccc(S(=O)(=O)N2CCCCC2C(=O)NO)cc1 (stereo not drawn) :: 14.2
CC(=O)c1ccc(S(=O)(=O)N2CCCC2C(=O)NO)cc1 (stereo not drawn) :: 58.2

So what's the measured inhibition at 5 µM for this one? CC(C)(C)c1ccc(S(=O)(=O)N2CCCC2C(=O)NO)cc1 (stereo not drawn)
0

One more molecule: CCCc1ccc(S(=O)(=O)N2CCCC2C(=O)NO)cc1 (stereo not drawn)
26.1

* * *

- System: MMP-1 (Homo sapiens)
- Construct: purchased Abchem (so in the source)
- Assay details: MMP1 Inhibitor Screening Assay Kit (ab139443), colorimetric thiopeptide substrate, OD412
- Assay type: biochemical
- Condition summary: remaining enzyme activity; T-05~20 at 10 uM; read-out: MMP-1 (%) (enzyme activity, high concentration)
Readout: remaining activity at 10 µM (%)
Value expressed in %; do not type the unit.

For Cc1cc(C)c(S(=O)(=O)NC(Cc2ccccc2)C(=O)NO)c(C)c1 (stereo not drawn) , what is its reported remaining activity at 10 µM?
100

Thanks! And Cc1cc(C)c(S(=O)(=O)NC(CC(C)C)C(=O)NO)c(C)c1 (stereo not drawn) ?
100

Okay, and CC(C)CC(NS(=O)(=O)c1ccc(C(C)(C)C)cc1)C(=O)NO (stereo not drawn) ?
100

* * *

- System: MMP-9 (Homo sapiens)
- Construct: purchased Abchem (so in the source)
- Sequence (P14780 94-707): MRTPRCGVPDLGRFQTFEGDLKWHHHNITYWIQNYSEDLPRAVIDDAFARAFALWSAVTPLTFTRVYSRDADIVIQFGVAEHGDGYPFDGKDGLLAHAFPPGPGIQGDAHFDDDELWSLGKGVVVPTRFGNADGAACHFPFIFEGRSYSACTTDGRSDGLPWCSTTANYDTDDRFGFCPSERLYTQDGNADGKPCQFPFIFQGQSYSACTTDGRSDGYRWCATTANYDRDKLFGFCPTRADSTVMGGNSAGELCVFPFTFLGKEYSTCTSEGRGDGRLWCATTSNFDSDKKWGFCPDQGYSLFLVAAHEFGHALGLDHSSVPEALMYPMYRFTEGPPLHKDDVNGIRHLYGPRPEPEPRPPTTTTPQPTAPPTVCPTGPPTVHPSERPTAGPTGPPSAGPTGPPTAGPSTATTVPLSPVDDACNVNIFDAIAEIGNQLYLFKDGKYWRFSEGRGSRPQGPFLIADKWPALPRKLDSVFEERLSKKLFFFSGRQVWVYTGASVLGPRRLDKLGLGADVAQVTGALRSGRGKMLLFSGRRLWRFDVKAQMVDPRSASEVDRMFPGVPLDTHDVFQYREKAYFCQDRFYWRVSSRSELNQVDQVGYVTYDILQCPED
- Assay details: MMP9 Inhibitor Screening Assay Kit (ab139448), colorimetric thiopeptide substrate, OD412
- Format: biochemical
- Condition summary: remaining enzyme activity; T-23~34 at 0.5 uM; read-out: MMP-9 (%) (enzyme activity, high concentration)
Reported remaining activity at 0.5 µM values for a set of molecules
Numbers only; they are read as %.

CC(=O)Nc1ccc(S(=O)(=O)N2CCCCC2C(=O)NO)cc1 (stereo not shown) :: 79.4
CCCc1ccc(S(=O)(=O)N2CCCC2C(=O)NO)cc1 (stereo not shown) :: 77.8
CC(C)(C)c1ccc(S(=O)(=O)N2CCCC2C(=O)NO)cc1 (stereo not shown) :: 100

For the molecule O=C(NO)C1CCCN1S(=O)(=O)c1ccc(C23CC4CC(CC(C4)C2)C3)cc1 (stereo not shown) , what remaining activity at 0.5 µM is on record?
88.1
